Tested on: biotinyl-Val-oxazolone
ASSAY TEXT: self-aminoacylation, catalytic enhancement (BVO) (fold over background); higher = more active; k-Seq, kA / k0A0; sequences stand for … in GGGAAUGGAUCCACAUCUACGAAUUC…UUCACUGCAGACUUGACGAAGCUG
This sample holds only a part of the variants without activity.
RECORDED ENDPOINT: self-aminoacylation
Number, no unit, nothing else.

# value lookup — system biotinyl-Val-oxazolone, readout self-aminoacylation, item AAGUUUGCUAACAGUCGCCAG [Fam3.1 aminoacylation ribozyme variant] 1.33

# query: self-aminoacylation | item AAGUUUGCUAAUAUUCGCAAA [Fam3.1 aminoacylation ribozyme variant] | system: biotinyl-Val-oxazolone 1.32

Enter reported self-aminoacylation observed with biotinyl-Val-oxazolone for AAAUUUGCUAAUAGUUGCAAG [Fam3.1 aminoacylation ribozyme variant] 1.21

Requested read-out self-aminoacylation, target or system biotinyl-Val-oxazolone, entry AUGCACCUAGAUCAUCGGGUG [Fam2.2 aminoacylation ribozyme variant] 2.69

Identify the measured self-aminoacylation of AUUACCCUGAUCAUGGAGUGA [Fam2.1 aminoacylation ribozyme variant] for biotinyl-Val-oxazolone. 4.92

Identify the measured self-aminoacylation of CUACUUCAUACAGUCGGUCUG [Fam1A.1 aminoacylation ribozyme variant] for biotinyl-Val-oxazolone. 0.67

Observed self-aminoacylation on biotinyl-Val-oxazolone for CCACACUUCAAGCAACCGGCC [Fam1B.1 aminoacylation ribozyme variant] , please. 3.58

# get_value(readout= self-aminoacylation, system= biotinyl-Val-oxazolone) for CUACUUCAGCCAAUCGGUCUG [Fam1A.1 aminoacylation ribozyme variant] 0.673

# value lookup — system biotinyl-Val-oxazolone, readout self-aminoacylation, item CCACACUAGAAGCAAUCGGUC [Fam1B.1 aminoacylation ribozyme variant] 0.961

Item: AUUACCCUGGAAAUCGAGUGA [Fam2.1 aminoacylation ribozyme variant] Test system: biotinyl-Val-oxazolone Read-out: self-aminoacylation Value: ? 8.39

I'm curious: which self-aminoacylation was measured for AUUCACCUCGGUCAGCGGGUG [Fam2.2 aminoacylation ribozyme variant] tested on biotinyl-Val-oxazolone? 3.37

Missing value: self-aminoacylation, biotinyl-Val-oxazolone, entry AAGUCUGCGAAUAGUCGCAAG [Fam3.1 aminoacylation ribozyme variant] . Fill in? 0.979

Enter reported self-aminoacylation observed with biotinyl-Val-oxazolone for AUUCACCUGGGUUAUCGGGUG [Fam2.2 aminoacylation ribozyme variant] 4

Identify the measured self-aminoacylation of AUGCACCUAGGUCGUCGGGUG [Fam2.2 aminoacylation ribozyme variant] for biotinyl-Val-oxazolone. 1.8

Record lookup: for biotinyl-Val-oxazolone, what self-aminoacylation belongs to CUACUUCAAACGAUCAGUCUG [Fam1A.1 aminoacylation ribozyme variant] ? 0.751

// map CCACACCUCAAGCAAGCGGUC [Fam1B.1 aminoacylation ribozyme variant] to recorded self-aminoacylation (system: biotinyl-Val-oxazolone) 1.21

Form: Entry = CCACAAUGCAAGCAAUCGGUC [Fam1B.1 aminoacylation ribozyme variant] | System = biotinyl-Val-oxazolone | self-aminoacylation = ____ 1.41

Lab note: need self-aminoacylation with biotinyl-Val-oxazolone for entry AUUCACCUAGGUCCUAGGGUG [Fam2.2 aminoacylation ribozyme variant] , please look it up. 1.75

Measured values drawn from the supplement of paper PMC9233669 for this set.
